target: D(2) dopamine receptor (Homo sapiens, UniProt P14416); experiment: Displacement of [3H]N-methylspiperone from human D2 long receptor stably expressed in HEK293T cells co-expressing luciferase and CEK incubated for 140 mins by radioligand competition binding based assay
Sequence (P14416 whole entry): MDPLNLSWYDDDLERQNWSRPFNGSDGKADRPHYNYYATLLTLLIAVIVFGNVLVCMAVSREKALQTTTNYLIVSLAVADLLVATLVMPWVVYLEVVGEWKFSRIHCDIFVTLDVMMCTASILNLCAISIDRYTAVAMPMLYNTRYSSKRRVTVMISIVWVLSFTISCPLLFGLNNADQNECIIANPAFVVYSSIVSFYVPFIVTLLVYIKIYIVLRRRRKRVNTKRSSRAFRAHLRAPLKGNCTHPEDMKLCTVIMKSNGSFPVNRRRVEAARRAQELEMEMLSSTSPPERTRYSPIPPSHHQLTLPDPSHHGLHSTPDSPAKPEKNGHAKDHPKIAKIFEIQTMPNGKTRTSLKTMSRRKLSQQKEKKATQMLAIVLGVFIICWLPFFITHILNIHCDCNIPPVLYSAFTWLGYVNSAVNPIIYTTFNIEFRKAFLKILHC
Assay readout: pKi
Give bare numbers, as −log10 of the molar value.

Answered examples (3):
Compound | Readout number
N/C(=N\C(=O)NCCCCCCNC(=O)/N=C(\N)NCCCc1nnc(N)s1)NCCCc1nnc(N)s1 | 6.02
CCCCCNC(=O)/N=C(\N)NCCCc1nnc(N)s1.O=C(O)C(F)(F)F.O=C(O)C(F)(F)F | 5.02
CC(CCCc1ccccc1)CNC(=O)/N=C(\N)NCCCc1nnc(N)s1 (configuration not stated) | 6.35

// batch mode: one pKi value per listed entry
1. N/C(=N\C(=O)NCc1ccccc1)NCCCc1nnc(N)s1
2. CC(CNC(=O)/N=C(\N)NCCCc1nnc(N)s1)C1CCCCC1 (configuration not stated)
3. Cc1ccc(CC(C)CNC(=O)/N=C(\N)NCCCc2cnc(N)s2)cc1 (configuration not stated)
4. N/C(=N\C(=O)NCc1ccccc1)NCCCc1cnc(N)s1
5. Cc1ccc(CC(C)CNC(=O)/N=C(\N)NCCCc2nnc(N)s2)cc1.O=C(O)C(F)(F)F.O=C(O)C(F)(F)F (configuration not stated)

1. 5.20
2. 5.79
3. 6.31
4. 5.34
5. 5.97
